- Test system: HS 578T breast
- Assay details: NCI tumour cell line growth inhibition, 48 h

{"Structure notation": "COc1c2ccoc2cc2oc(=O)ccc12", "Target or system": "HS 578T breast", "TGI": "> 100 µM"}
{"Structure notation": "O=C(NO)c1ccc(OCc2cccc(Cl)c2)cc1", "Target or system": "HS 578T breast", "TGI": "> 96 µM"}
{"Structure notation": "CCOC(=O)/C(C=Nc1c(C)n(C)n(-c2ccccc2)c1=O)=C(/O)c1ccccc1", "Target or system": "HS 578T breast", "TGI": "> 100 µM"}
{"Structure notation": "CC(C)OC(=O)Nc1cccc(Cl)c1", "Target or system": "HS 578T breast", "TGI": "> 100 µM"}
{"Structure notation": "O=Nc1c(-c2c(O)[nH]c3ccccc23)[nH]c2ccccc12", "Target or system": "HS 578T breast", "TGI": "> 29.1 µM"}
{"Structure notation": "Cc1cc(=O)oc2cc(SC(=O)N(C)C)ccc12", "Target or system": "HS 578T breast", "TGI": "> 100 µM"}
